# target_of_assay: DYRK2 (Homo sapiens, UniProt Q92630)
# Sequence (Q92630 whole entry): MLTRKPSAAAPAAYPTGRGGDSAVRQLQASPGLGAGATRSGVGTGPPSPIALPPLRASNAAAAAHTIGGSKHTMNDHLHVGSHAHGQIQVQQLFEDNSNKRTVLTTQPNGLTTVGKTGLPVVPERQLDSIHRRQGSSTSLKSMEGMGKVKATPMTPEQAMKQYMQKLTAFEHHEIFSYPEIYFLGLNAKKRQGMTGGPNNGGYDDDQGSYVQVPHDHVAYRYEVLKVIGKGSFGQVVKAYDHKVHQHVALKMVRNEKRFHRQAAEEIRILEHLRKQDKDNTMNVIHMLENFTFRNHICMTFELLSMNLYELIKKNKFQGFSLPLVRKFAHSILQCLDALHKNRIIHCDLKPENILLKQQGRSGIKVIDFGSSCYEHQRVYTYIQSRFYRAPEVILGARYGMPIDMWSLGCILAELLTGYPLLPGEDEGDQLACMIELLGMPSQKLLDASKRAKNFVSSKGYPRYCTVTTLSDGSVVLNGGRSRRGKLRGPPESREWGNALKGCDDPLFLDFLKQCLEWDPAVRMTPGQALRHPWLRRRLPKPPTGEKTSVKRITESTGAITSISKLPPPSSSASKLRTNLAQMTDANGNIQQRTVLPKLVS
endpoint_label: IC50 (nM)
// units = nM; emit number, no label

Which IC50 value belongs to CC(Sc1nc2c(cnn2-c2cccc(Cl)c2)c(=O)[nH]1)C(N)=O (stereo not shown) [HS38] ?
1800
